Every entry's value here was drawn from patent US6376512B1.

# melting point values compiled below

Some molecules with recorded melting point:
Name the reported melting point value associated with the molecule c1cc(COc2ccc(OCc3ccc4ccccc4n3)cc2)cc(OCc2nnn[nH]2)c1 [Example 32]
131 to 132 °C

Item: N#Cc1ccc(COc2cccc(OCc3ccc4ccccc4n3)c2)cc1 [Example 26]
112.5 °C

What would you report for N#Cc1cccc(OCc2cccc(OCc3ccc4ccccc4n3)c2)c1 [Example 7] ?
86 to 87 °C

Same read-out for c1ccc2nc(COc3ccc(COc4ccc(-c5nnn[nH]5)cc4)cc3)ccc2c1 [Example 11] ?
210 to 213 °C

Also need c1cc(COc2cccc(-c3nnn[nH]3)c2)cc(OCc2ccc3ccccc3n2)c1 [Example 10] , thanks.
169 to 172 °C

And for COC(=O)c1cccc(COc2cccc(OCc3ccc4ccccc4n3)c2)c1 [Example 19] ?
93 to 94 °C

Record: O=C(O)c1cccc(COc2cccc(OCc3ccc4ccccc4n3)c2)c1 [Example 20]
149 to 151 °C

Now give it for COc1cc(C(=O)O)ccc1OCc1cccc(OCc2ccc3ccccc3n2)c1 [Example 15] too.
188 to 190 °C

***
Need melting point of c1cc(OCc2ccc(-c3nnn[nH]3)cc2)cc(OCc2ccc3ccccc3n2)c1 [Example 27] , thanks.
91 °C (dec.)

Thanks! And COC(=O)c1ccc(OCc2cccc(OCc3ccc4ccccc4n3)c2)c(OC)c1 [Example 14] ?
100 to 101 °C

Could you do the same for c1ccc2nc(COc3ccc(COc4ccc(Cc5nnn[nH]5)cc4)cc3)ccc2c1 [Example 12] , please?
179 to 181 °C

* * *

- measured target: LTD4 receptor (Cavia porcellus, UniProt Q2NNR5)
- Sequence (Q2NNR5 whole entry): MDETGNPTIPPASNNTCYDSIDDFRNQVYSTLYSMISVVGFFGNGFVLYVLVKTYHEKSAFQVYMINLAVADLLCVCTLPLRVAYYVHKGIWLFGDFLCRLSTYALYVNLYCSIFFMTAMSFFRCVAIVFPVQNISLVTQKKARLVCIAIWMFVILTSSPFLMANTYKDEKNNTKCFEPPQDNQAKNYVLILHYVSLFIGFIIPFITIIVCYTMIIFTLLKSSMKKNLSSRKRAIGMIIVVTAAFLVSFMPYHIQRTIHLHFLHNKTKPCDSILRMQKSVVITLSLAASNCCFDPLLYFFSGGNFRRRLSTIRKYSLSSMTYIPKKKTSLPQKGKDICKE
observation type: pKd
Give only the number. pKd is defined as minus log10 of concentration in molar units.

Recall the recorded pKd for c1ccc(Cc2nn[nH]n2)c(COc2ccc(OCc3ccc4ccccc4n3)cc2)c1 with LTD4 receptor (Cavia porcellus, UniProt Q2NNR5) and state it.
8.52
